molecular target: Human Nav1.7 (Homo sapiens); test: IonWorks Barracuda (IWB) automated patch clamp assay; conditions: human Nav1.7 currents, HEK cells, population patch-clamp, state- and use-dependent voltage protocol; read-out: hNaV1.7 IWB-U IC50
Sequence (Q15858 whole entry): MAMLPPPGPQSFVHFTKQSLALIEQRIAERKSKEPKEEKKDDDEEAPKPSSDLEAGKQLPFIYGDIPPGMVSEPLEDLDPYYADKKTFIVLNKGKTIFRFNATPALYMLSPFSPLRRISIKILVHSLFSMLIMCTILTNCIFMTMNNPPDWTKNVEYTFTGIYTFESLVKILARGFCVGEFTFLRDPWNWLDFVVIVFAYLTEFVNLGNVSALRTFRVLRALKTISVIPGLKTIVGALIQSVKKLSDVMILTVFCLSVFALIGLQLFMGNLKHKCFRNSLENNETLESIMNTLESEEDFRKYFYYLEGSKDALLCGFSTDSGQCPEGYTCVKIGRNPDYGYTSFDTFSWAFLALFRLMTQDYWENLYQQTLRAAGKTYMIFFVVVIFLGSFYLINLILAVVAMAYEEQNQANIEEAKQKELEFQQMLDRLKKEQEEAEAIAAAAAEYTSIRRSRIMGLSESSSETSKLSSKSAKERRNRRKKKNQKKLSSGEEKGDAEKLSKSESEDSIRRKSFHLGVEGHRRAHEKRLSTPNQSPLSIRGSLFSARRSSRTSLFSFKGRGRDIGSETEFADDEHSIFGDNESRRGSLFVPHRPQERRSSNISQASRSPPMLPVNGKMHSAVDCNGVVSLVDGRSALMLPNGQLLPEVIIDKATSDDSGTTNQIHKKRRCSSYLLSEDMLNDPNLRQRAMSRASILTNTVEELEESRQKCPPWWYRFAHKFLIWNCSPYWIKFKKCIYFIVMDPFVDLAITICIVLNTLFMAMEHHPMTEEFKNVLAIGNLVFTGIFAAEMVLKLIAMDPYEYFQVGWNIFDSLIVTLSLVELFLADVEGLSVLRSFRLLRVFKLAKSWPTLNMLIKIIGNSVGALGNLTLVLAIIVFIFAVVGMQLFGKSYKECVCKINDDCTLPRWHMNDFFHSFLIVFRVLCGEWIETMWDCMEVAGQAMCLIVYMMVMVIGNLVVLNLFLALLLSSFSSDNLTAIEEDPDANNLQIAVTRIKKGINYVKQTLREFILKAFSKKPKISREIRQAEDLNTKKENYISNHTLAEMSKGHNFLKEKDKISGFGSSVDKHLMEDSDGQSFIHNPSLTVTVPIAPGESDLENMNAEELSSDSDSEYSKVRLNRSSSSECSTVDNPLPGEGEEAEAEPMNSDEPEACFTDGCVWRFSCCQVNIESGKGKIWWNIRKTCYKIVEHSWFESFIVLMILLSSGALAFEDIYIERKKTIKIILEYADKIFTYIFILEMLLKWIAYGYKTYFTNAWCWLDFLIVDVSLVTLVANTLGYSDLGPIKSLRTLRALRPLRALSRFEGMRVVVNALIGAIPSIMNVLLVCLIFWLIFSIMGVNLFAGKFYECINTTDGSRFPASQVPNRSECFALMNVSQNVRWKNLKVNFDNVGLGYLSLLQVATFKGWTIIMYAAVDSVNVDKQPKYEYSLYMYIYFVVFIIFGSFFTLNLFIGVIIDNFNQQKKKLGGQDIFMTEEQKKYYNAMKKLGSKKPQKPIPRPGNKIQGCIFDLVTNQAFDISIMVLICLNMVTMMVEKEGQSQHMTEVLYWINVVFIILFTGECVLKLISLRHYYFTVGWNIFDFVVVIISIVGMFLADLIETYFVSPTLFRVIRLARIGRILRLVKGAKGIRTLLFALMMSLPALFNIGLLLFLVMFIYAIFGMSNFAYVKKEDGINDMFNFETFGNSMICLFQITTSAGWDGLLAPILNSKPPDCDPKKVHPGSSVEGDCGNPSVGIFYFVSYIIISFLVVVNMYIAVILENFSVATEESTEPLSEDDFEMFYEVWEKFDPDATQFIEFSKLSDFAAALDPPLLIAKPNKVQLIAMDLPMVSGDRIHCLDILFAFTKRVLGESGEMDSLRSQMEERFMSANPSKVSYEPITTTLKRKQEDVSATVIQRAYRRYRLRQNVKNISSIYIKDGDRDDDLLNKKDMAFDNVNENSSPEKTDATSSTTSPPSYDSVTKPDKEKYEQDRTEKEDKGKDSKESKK
pIC50: −log10 of the molar value.
parameter: pIC50

Some entries whose results are on file:
compound	obs-value
COc1cc(C2CCC2)c(C)cc1-n1c(=O)ccc2cc(S(=O)(=O)Nc3ncco3)ccc21 (atropisomer, axis not shown; (P))	7.55
COc1cc([C@H]2C[C@H](C(F)(F)F)C2)c(F)cc1-n1c(=O)ccc2cc(S(=O)(=O)Nc3cccnn3)ccc21 (atropisomer, axis not shown; (P))	7.96
COc1cc([C@H]2C[C@H](C(F)(F)F)C2)c(Cl)cc1-n1c(=O)ccc2cc(S(=O)(=O)Nc3ncco3)ccc21 (atropisomer, axis not shown; (P))	8.00

P. COc1cc([C@H]2C[C@H](C(F)(F)F)C2)ccc1-n1c(=O)ccc2cc(S(=O)(=O)Nc3ccon3)ccc21 (atropisomer, axis not shown; (P))
Q. COc1cc(C2CCC2)c(F)cc1-n1c(=O)ccc2cc(S(=O)(=O)Nc3ncccn3)ccc21 (atropisomer, axis not shown; (P))
R. COc1cc([C@H]2C[C@H](OC(F)(F)F)C2)c(F)cc1-n1c(=O)ccc2cc(S(=O)(=O)Nc3ccon3)ccc21 (single isomer, unassigned)
S. COc1cc([C@H]2C[C@H](C(F)(F)F)C2)c(F)cc1-n1c(=O)ccc2cc(S(=O)(=O)Nc3ccon3)c(F)cc21 (atropisomer, axis not shown; (P))
T. COc1cc(C2CCC2)c(C)cc1-n1c(=O)ccc2cc(S(=O)(=O)Nc3cccnn3)ccc21 (atropisomer, axis not shown; (P))
Arrange items by their pIC50 values in increasing order. List the labels according to the requested ordering. T, Q, P, R, S
(T: 6.86, Q: 7.27, P: 7.70, R: 8.10, S: 8.30)

1. COc1cc(C2CCC2)ccc1-n1c(=O)ccc2cc(S(=O)(=O)Nc3ccon3)ccc21 (atropisomer, axis not shown; (P))
2. COc1cc([C@H]2C[C@](F)(C(F)(F)F)C2)c(Cl)cc1-n1c(=O)ccc2cc(S(=O)(=O)Nc3ccon3)ccc21 (atropisomer, axis not shown; (P))
For this pair, 1 and 2 , which shows a numerically higher pIC50? Please respond with the label that marks your chosen entry. 2
(2: 8.10, 1: 7.43)
